Where these numbers come from: patent US20040248765A1

Measurement name: melting point

Problem: If you can, please state the reported melting point value of NCC(=O)N1CCC[C@H]1C(=O)NCCCNc1cccc2c1C(=O)c1ccccc1C2=O.O=C(O)C(F)(F)F .
Solution: 160 to 166 °C

Problem: If you can, please state the reported melting point value of CC[C@H](C)[C@H](NC(=O)[C@H](Cc1ccccc1)NC(=O)[C@H](CC(C)C)NC(=O)[C@@H](C)N)C(=O)NCC(=O)N[C@@H](Cc1ccccc1)C(=O)N1CCC[C@H]1C(=O)NCCCNc1cccc2c1C(=O)c1ccccc1C2=O.O=C(O)C(F)(F)F .
Solution: 142 to 148 °C

Problem: If you can, please state the reported melting point value of CC(C)C[C@H](NC(=O)[C@H](Cc1ccc(O)cc1)NC(=O)[C@H](C)NC(=O)[C@@H](C)N)C(=O)NCC(=O)N[C@@H](CC(C)C)C(=O)N1CCC[C@H]1C(=O)NCCCNc1cccc2c1C(=O)c1ccccc1C2=O.O=C(O)C(F)(F)F .
Solution: 190 to 194 °C

Problem: If you can, please state the reported melting point value of CCC[C@H](NC(=O)[C@H](C)NC(=O)[C@@H](C)N)C(=O)N[C@@H](CC(C)C)C(=O)NCC(=O)N[C@@H](CC(C)C)C(=O)N1CCC[C@H]1C(=O)NCCCNc1cccc2c1C(=O)c1ccccc1C2=O.O=C(O)C(F)(F)F .
Solution: 174 to 178 °C

Problem: If you can, please state the reported melting point value of NCC(=O)N[C@@H](Cc1ccccc1)C(=O)N1CCC[C@@H]1C(=O)NCCCNc1cccc2c1C(=O)c1ccccc1C2=O.O=C(O)C(F)(F)F .
Solution: 128 to 130 °C

Problem: If you can, please state the reported melting point value of CCC[C@H](N)C(=O)N1CCC[C@H]1C(=O)NCCCNc1cccc2c1C(=O)c1ccccc1C2=O.O=C(O)C(F)(F)F .
Solution: 190 to 194 °C
